# System: TTR
# experiment: TTR editing in primary human hepatocytes transfected with Spy Cas9 protein (RNP) loaded with dgRNAs (Table 8)
# Format: cell-based
# experimentalSetup: dgRNA transfected with Spy Cas9 protein (RNP)
# Method: Primary liver hepatocytes. Primary human liver hepatocytes (PHH) and primary cynomolgus liver hepatocytes (PCH) (Gibco) were cultured per the manufacturer's protocol (Invitrogen, protocol 11.28.2012). […] Cells were counted and plated on Bio-coat collagen I coated 96-well plates (ThermoFisher, Cat. 877272) at a density of 33,000 cells/well for human or 60,000 cells/well for cyno (or 65,000 cells/well when assaying effects on TTR protein, described further below). […]
Parameter: Avg % Deletion. Scope: all listed entries.
Record the value in %, omitting the unit from your answer.

As a guide, the following entries are already answered.
monomerSequence | parameter | readoutNumber
AAUGGUGUAGCGGCGGGGGC (tested as dual guide RNA, chemistry not given here) [CR003375] | Avg % Deletion | 0.11
GCAGGGCGGCAAUGGUGUAG (tested as dual guide RNA, chemistry not given here) [CR003380] | Avg % Deletion | 0.46

Look up Avg % Deletion of GGGCGGCAAUGGUGUAGCGG (tested as dual guide RNA, chemistry not given here) [CR003379] and report it.
0.34

Values from patent US11795460B2
